- Test system: Ba/F3 cells expressing EGFR mutations
- measurement.notes: Cell proliferation assay, Ba/F3 cells expressing EGFR mutations (CellTiter-Glo, 72 hours)
- Type: cell-based
- condition.description: BaF3 cells, EGFR DEL19 - C797S, read-out: GI50 DEL19 - C797S/BaF3
measured.property: GI50 (nM)
# unit: nM | format: bare number

molecule	GI50 [nM]
Cc1cc2cc(n1)-c1cnn(C)c1OCCN1CC3CCC(C3)(C1)n1c(nc3ccc(N4CC[C@H](N(C)C)C4)cc31)NC2=O (single isomer, unassigned) [Example B41A]	302

(Q) Which value of GI50 has been reported for Cc1cc2cc(n1)-c1cnn(C)c1OCCN1CC3CCC(C3)(C1)n1c(nc3ccc(N(C)CCCN(C)C)cc31)NC2=O (single isomer, unassigned) [Example B45B] in the records?
(A) 2

(Q) Which value of GI50 has been reported for Cc1cc2cc(n1)-c1cnn(C)c1OCCN1CC3CCC(CC3)(C1)n1c(nc3ccc(N4CCC5(CCN(C)CC5)C4)cc31)NC2=O in the records?
(A) 24

(Q) Which value of GI50 has been reported for Cc1cc2cc(n1)-c1cnn(C)c1OCCN1CC3CCC(C3)(C1)n1c(nc3ccc(N4CCN(C(C)C)CC4)cc31)NC2=O (single isomer, unassigned) [Example B57B] in the records?
(A) 2

(Q) Which value of GI50 has been reported for Cc1cc2cc(n1)-c1cnn(C)c1OCCN1CC3CCC(C3)(C1)n1c(nc3ccc(N4CCC(N5CCN(C)CC5)C4)cc31)NC2=O (single isomer, unassigned) [Example B49A] in the records?
(A) 325

* * *

- Tested on: PC-9
- measurement.notes: Cell proliferation assay, PC-9 cells (CellTiter-Glo, 72 hours)
- Type: cell-based
- condition.description: Homo sapiens, PC-9, 72 h, PC9 cells, read-out: GI50 PC9
// classify: if (GI50 < 100 nM) True else False

Completed entries (count: 5):
molecule	assigned.category
Cc1cc2cc(n1)-c1cnn(C)c1OCCCCCn1c(nc3ccc4c(c31)CCNC4)NC2=O	False
Cc1cc2cc(n1)-c1cnn(C)c1OCCN1CC3CCC(CC3)(C1)n1c(nc3ccc(N4CC5CCN(C)C5C4)cc31)NC2=O (stereo not shown)	False
CN(C)[C@H]1CCN(c2ccc3nc4n(c3c2)C23CCC(CC2)CN(CCOc2c(cnn2C)-c2cc(cn(C)c2=O)C(=O)N4)C3)C1	True
Cc1cc2cc(n1)-c1cnn(C)c1OCCN1CC3CCC(CC3)(C1)n1c(nc3ccc(N4CCN(C)CC4)cc31)NC2=O	True
C[C@@H]1CCCOc2ccccc2-c2cc(cn(C)c2=O)C(=O)Nc2nc3ccc(N4CCN(C)CC4)cc3n2C1	True

Turning now to a further molecule:
(Q) Bench note: check whether C[C@@H]1CCCOc2ccc(F)cc2-c2cc(cn(C)c2=O)C(=O)Nc2nc3ccc(N4CCN(C)CC4)cc3n2C1 shows GI50 below 100 nM
(A) False

* * *

- assayed.system: EGFR L858R/T790M (Homo sapiens, UniProt P00533, L858R/T790M)
- Construct: purchased Carna Bio
- Sequence (P00533 25-1210 T790M/L858R): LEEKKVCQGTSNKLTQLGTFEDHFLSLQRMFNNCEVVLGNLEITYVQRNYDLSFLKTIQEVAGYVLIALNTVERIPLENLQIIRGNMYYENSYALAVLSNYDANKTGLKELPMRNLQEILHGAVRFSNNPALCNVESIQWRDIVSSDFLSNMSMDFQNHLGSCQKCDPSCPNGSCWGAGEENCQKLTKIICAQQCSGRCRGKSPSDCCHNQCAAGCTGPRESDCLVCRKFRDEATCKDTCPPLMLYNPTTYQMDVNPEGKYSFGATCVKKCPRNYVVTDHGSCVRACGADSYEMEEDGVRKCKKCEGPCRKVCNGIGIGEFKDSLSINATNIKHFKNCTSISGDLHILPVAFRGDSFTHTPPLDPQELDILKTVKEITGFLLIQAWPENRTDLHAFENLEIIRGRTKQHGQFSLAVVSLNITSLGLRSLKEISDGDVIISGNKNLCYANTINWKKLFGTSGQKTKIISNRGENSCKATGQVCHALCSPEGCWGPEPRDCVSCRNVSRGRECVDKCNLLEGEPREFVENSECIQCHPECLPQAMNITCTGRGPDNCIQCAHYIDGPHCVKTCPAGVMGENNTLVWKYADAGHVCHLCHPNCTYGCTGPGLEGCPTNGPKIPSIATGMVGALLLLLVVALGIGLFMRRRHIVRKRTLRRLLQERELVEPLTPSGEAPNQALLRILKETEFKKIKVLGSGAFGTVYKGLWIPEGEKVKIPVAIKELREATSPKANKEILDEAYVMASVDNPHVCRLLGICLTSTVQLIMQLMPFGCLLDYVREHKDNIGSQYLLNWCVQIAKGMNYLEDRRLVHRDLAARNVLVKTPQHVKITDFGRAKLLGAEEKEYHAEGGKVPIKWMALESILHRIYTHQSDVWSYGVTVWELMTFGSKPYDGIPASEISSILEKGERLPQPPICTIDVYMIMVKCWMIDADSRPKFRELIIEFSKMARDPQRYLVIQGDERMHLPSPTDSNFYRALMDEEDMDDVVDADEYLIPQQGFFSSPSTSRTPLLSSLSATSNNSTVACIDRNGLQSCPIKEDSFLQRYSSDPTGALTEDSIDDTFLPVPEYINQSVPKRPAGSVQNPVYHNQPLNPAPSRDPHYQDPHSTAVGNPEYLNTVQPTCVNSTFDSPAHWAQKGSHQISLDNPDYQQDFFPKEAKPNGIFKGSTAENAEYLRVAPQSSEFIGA
- measurement.notes: Inhibition of EGFR L858R/T790M biochemical enzymatic activity (HTRF)
- condition.description: EGFR L858R-T790M, 1 mM ATP, 1 h, room temperature, read-out: IC50 (nM) @L858R-T790M
Each entry below lists one item and its recorded IC50 value.
# unit: nM | format: bare number

Known IC50 results, listed for orientation:
compound	display.unit	quantitative.result
CN(C)CCCN(C)c1ccc2nc3n(c2c1)C12CCC(CC1)CN(CCOc1c(cnn1C)-c1cc(cn(C)c1=O)C(=O)N3)C2 [Example A125]	nM	582
Cc1cc2cc(n1)-c1cnn(C)c1OCCN1CC3CCC(CC3)(C1)n1c(nc3ccccc31)NC2=O [Example B1]	nM	15
CN1CC2(C1)CN(c1ccc3nc4n(c3c1)C13CCC(CN(CCOc5c(cnn5C)-c5cc(cn(C)c5=O)C(=O)N4)C1)C3)C2 (single isomer, unassigned) [Example A92B]	nM	2.3
Cn1ncc2c1OCCN1CC3CCC(CC3)(C1)n1c(nc3cc(F)c(N4CCOCC4)cc31)NC(=O)c1cc-2c(=O)n(C)c1 [Example A113]	nM	230
CN(C)C1CN(c2ccc3nc4n(c3c2)C23CCC(CN(CCOc5c(cnn5C)-c5cc(cn(C)c5=O)C(=O)N4)C2)C3)CC1F (single isomer, unassigned) [Example A84D]	nM	4.6

(Q) Which value of IC50 has been reported for CN(C)C1CN(c2ccc3nc4n(c3c2)C23CCC(CN(CCOc5c(cnn5C)-c5cc(cn(C)c5=O)C(=O)N4)C2)C3)CC1F (single isomer, unassigned) [Example A84C] in the records?
(A) 5

(Q) Which value of IC50 has been reported for C[C@@H]1CCCOc2c(cnn2C)-c2cc(cn(C)c2=O)C(=O)Nc2nc3ccc(N4CC(N5CCN(C)CC5)C4)cc3n2C1 [Example A46] in the records?
(A) 8.5

(Q) Which value of IC50 has been reported for CN1CC2CC1CN2c1ccc2nc3n(c2c1)C12CCC(CN(CCOc4c(cnn4C)-c4cc(cn(C)c4=O)C(=O)N3)C1)C2 (single isomer, unassigned) [Example A105B] in the records?
(A) 1.8

(Q) Which value of IC50 has been reported for CN(C)CCN(C)c1ccc2nc3n(c2c1)C12CCC(CC1)CN(CCOc1c(cnn1C)-c1cc(cn(C)c1=O)C(=O)N3)C2 [Example A124] in the records?
(A) 334

(Q) Which value of IC50 has been reported for CN(C)C1CCN(c2ccc3nc4n(c3c2)C23CCC(CC2)CN(CCOc2c(cnn2C)-c2cc(cn(C)c2=O)C(=O)N4)C3)CC1 [Example A119] in the records?
(A) 32
